System: 5-Lipoxygenase
Assay: 5-Lipoxygenase inhibitory activity, colorimetric method (ferric xylenol orange, linoleic acid)
Format: biochemical
Conditions: 100 μM
Label Satisfied when % inhibition of 5-Lox activity is at or above 20%; otherwise label Not satisfied.

Take a look at these entries with their results.
* CC1CCC2(C(=O)O)CCC3(C)C(=CCC4C5(C)CC(OC(=O)CN)C(O)C(C)(C)C5CCC43C)C2C1C.Cl (centres unmarked) [Compound 4, 2-O-Glycylcorosolic acid hydrochloride] | Not satisfied
* COC(=O)C12CCC(C)C(C)C1C1=CC(O)C3C4(C)CC(O)C(O)C(C)(C)C4CCC3(C)C1(C)CC2 (centres unmarked) [Compound 22, Methyl 11-hydroxycorosolate] | Satisfied
* CC1CCC2(C(=O)O)CCC3(C)C(=CCC4C5(C)CC(OC(=O)c6cccnc6)C(O)C(C)(C)C5CCC43C)C2C1C (centres unmarked) | Satisfied

% inhibition of 5-Lox activity >= 20% for C[C@H]1[C@H](C)CC[C@]2(C(N)=O)CC[C@]3(C)C(=CC(O)[C@@H]4[C@@]5(C)C[C@@H](O)[C@H](O)C(C)(C)[C@@H]5CC[C@]43C)[C@H]12 (some centres unmarked) [Compound 21, 11-Hydroxycorosolamide] ?
Satisfied

% inhibition of 5-Lox activity >= 20% for COC(=O)[C@]12CC[C@@H](C)[C@H](C)[C@H]1C1=CC[C@@H]3[C@@]4(C)C[C@@H](O)[C@H](O)C(C)(C)[C@@H]4CC[C@@]3(C)[C@]1(C)CC2 [Compound 13, Methyl corosolate] ?
Not satisfied

###

Tested on: Albino wistar rats
Experiment: Hypoglycemic activity: inhibition of sucrose-induced raise in serum glucose levels (SGL)
Assay type: in vivo
Design: unit not given here
Details: oral dose 1 mg/Kg; mean increase in serum glucose levels of treated vs control groups
Description: Hypoglycemic activity: Hypoglycemic activity was tested by the inhibition of sucrose-induced raise in serum glucose levels (SGL), by the test substances in Albino wistar rats. The procedure involves fasting the rats for overnight at ad libitum water, numbered weighed and randomly divided into groups of six animals each. […] The data was subjected to statistical treatment using t-test and inhibitory rate was calculated by comparing mean increase in serum glucose levels of control and treated groups. […]
measureName: Inhibitory rate (serum glucose level inhibitory rate)
Reply: number alone, nothing else.

For orientation, consider the following solved cases.
- C[C@H]1[C@H](C)CC[C@]2(C(N)=O)CC[C@]3(C)C(=CC[C@@H]4[C@@]5(C)C[C@@H](O)[C@H](O)C(C)(C)[C@@H]5CC[C@]43C)[C@H]12 [Compound 8, Corosolamide]: 18.15
- COC(=O)[C@]12CC[C@@H](C)[C@H](C)[C@H]1C1=CC(=O)[C@@H]3[C@@]4(C)C[C@@H](O)[C@H](O)C(C)(C)[C@@H]4CC[C@@]3(C)[C@]1(C)CC2 [Compound 15, Methyl 11-ketocorosolate]: 17.4

Please turn your attention to the following entry.
Consider the molecule shown here: C[C@H]1[C@H](C)CC[C@]2(C(N)=O)CC[C@]3(C)C(=CC(O)[C@@H]4[C@@]5(C)C[C@@H](O)[C@H](O)C(C)(C)[C@@H]5CC[C@]43C)[C@H]12 (stereo partly drawn) [Compound 21, 11-Hydroxycorosolamide] What is its recorded Inhibitory rate (serum glucose level inhibitory rate)?
25.37

###

Test system: 5-Lipoxygenase
Assay: 5-Lipoxygenase inhibitory activity, colorimetric method (ferric xylenol orange, linoleic acid)
Assay type: biochemical
Settings: 250 μM
This listing pairs compounds with measured % inhibition of 5-Lox activity.
Write down the numeric answer in % and omit the unit.

Consider the compound shown here: "CC(=O)O[C@@H]1C[C@]2(C)[C@H]3CC=C4[C@@H]5[C@@H](C)[C@H](C)CC[C@]5(C(=O)O)CC[C@@]4(C)[C@]3(C)CC[C@H]2C(C)(C)[C@H]1OC(C)=O" What is its recorded % inhibition of 5-Lox activity?
44.54

Consider the compound shown here: COc1cc(C(=O)OC(=O)C23CCC(C)C(C)C2C2=CCC4C5(C)CC(O)C(O)C(C)(C)C5CCC4(C)C2(C)CC3)cc(OC)c1OC (centres unmarked) [Compound 25, Corosolyl tri-O-methylgallate] What is its recorded % inhibition of 5-Lox activity?
38.83

Consider the compound shown here: C[C@H]1[C@H](C)CC[C@]2(C(N)=O)CC[C@]3(C)C(=CC[C@@H]4[C@@]5(C)C[C@@H](O)[C@H](O)C(C)(C)[C@@H]5CC[C@]43C)[C@H]12 [Compound 8, Corosolamide] What is its recorded % inhibition of 5-Lox activity?
51.29

Consider the compound shown here: C[C@H]1[C@H](C)CC[C@]2(C(N)=O)CC[C@]3(C)C(=CC(O)[C@@H]4[C@@]5(C)C[C@@H](O)[C@H](O)C(C)(C)[C@@H]5CC[C@]43C)[C@H]12 (some centres unmarked) [Compound 21, 11-Hydroxycorosolamide] What is its recorded % inhibition of 5-Lox activity?
50.83

Consider the compound shown here: COC(=O)[C@]12CC[C@@H](C)[C@H](C)[C@H]1C1=CC[C@@H]3[C@@]4(C)C[C@@H](O)[C@H](O)C(C)(C)[C@@H]4CC[C@@]3(C)[C@]1(C)CC2 [Compound 13, Methyl corosolate] What is its recorded % inhibition of 5-Lox activity?
40.04
